Target: Pyruvate dehydrogenase kinase (Homo sapiens, UniProt Q15119+Q15120+Q16654+Q15118)
Assay: Binding affinity to pyruvate dehydrogenase kinase (unknown origin) by VER-00160364 probe based fluorescence polarization assay
ATTRIBUTE_MEASURED: IC50 (nM)

{"COMPOUND": "Cc1nc(C)c(-c2ccc3c(c2)CCCN3C(=O)c2ccc(O)cc2O)s1", "VALUE_UNITS": "nM", "IC50": 100}
{"COMPOUND": "CC1CCc2cc(C(=O)N3CCCCC3)ccc2N1C(=O)c1ccc(O)cc1O (stereo not drawn)", "VALUE_UNITS": "nM", "IC50": 100}
{"COMPOUND": "Cc1nc(-c2ccc3c(c2)CC[C@H](C)N3C(=O)c2ccc(O)cc2O)c2ccccc2n1", "VALUE_UNITS": "nM", "IC50": 100}

(I) CSc1nc2c(c(-c3ccc4c(c3)CC[C@H](C)N4C(=O)c3ccc(O)cc3O)n1)CCC2
(II) Cc1cc(S(=O)(=O)NCc2cccnc2)cnc1-c1ccc2c(c1)CC[C@H](C)N2C(=O)c1ccc(O)cc1O
Lowest IC50? choose I or II # answer = label of selected item II
